residual activity for assorted compounds
Target: DYRK3 (human)
Test: radiometric filter-binding kinase assay, Kinase HotSpot
Details: compound 0.5 µM; ATP 10 µM
measuredEndpoint: residual activity

{"smilesInput": "COc1cc2ncnc(Nc3ccc(O)c(Br)c3)c2cc1OC", "valueObserved": "95.3%"}
{"smilesInput": "N/C(=N\\N=C/c1ccc(-c2cccc([N+](=O)[O-])c2)o1)N[N+](=O)[O-]", "valueObserved": "102%"}
{"smilesInput": "Nc1ncnc2c1cnn2-c1ccccc1", "valueObserved": "96.8%"}
{"smilesInput": "COc1cc2c(Nc3ccc(Br)cc3F)ncnc2cc1OCC1CCN(C)CC1", "valueObserved": "96%"}
{"smilesInput": "N#CCCc1ccc2c(c1)-c1[nH]c3ccc([N+](=O)[O-])cc3c1CC(=O)N2", "valueObserved": "97.6%"}
{"smilesInput": "c1ccc(-c2cnc(Nc3ccc(OCCN4CCCC4)cc3)s2)cc1", "valueObserved": "106%"}
{"smilesInput": "CCCCc1c(-c2ccc(O)cc2)[nH]c2nccnc12", "valueObserved": "90.9%"}
{"smilesInput": "O=C(O)c1ccc2c3c1cccc3c(=O)n1c3ccccc3nc21", "valueObserved": "92.3%"}
{"smilesInput": "O=c1c(-c2ccc(F)cc2)c(-c2ccncc2)[nH]n1-c1ccc(Cl)cc1", "valueObserved": "82.7%"}
{"smilesInput": "Cc1cc(Nc2nc(-c3ccccc3)nc3ccccc23)n[nH]1", "valueObserved": "81.9%"}
{"smilesInput": "O=c1cc(N2CCOCC2)oc2c(-c3ccccc3)cccc12", "valueObserved": "100%"}
